- STUDY TARGET: CB2 cannabinoid receptor (Mus musculus, UniProt P47936)
- Sequence (P47936 whole entry): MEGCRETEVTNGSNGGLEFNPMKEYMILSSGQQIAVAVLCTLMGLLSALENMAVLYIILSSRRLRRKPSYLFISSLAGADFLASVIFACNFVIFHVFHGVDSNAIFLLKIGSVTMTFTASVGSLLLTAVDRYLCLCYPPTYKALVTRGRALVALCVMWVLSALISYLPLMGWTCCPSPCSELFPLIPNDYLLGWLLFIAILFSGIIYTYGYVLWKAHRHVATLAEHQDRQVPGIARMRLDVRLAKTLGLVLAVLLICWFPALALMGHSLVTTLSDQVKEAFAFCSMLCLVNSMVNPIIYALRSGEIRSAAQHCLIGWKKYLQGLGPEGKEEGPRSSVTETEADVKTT
- ASSAY EXPLANATION: biochemical
- Type: binding
- PROTOCOL CONDITIONS: Table 7; mouse spleen membranes, [3H] CP-55,940; read-out: CB2 Ki
ASSAY ENDPOINT: Ki
Express the reported value numerically, then name its unit.

                            compound_smiles  reported_measurement
0  Cc1c(C(=O)NN2CCCCC2)nn(-c2ccc(Cl)cc2Cl)c1-c1ccc(C#CCO)cc1               1490 nM
1  Cc1c(C(=O)NN2CCCCC2)nn(-c2ccc(Cl)cc2Cl)c1-c1ccc(C#CCCC#N)cc1                127 nM

Switching to the query record.
Request: Test system CB2 cannabinoid receptor (Mus musculus, UniProt P47936); read-out Ki; what value for Cc1c(C(=O)NN2CCCCC2)nn(-c2ccc(Cl)cc2Cl)c1-c1ccc(C#CCCO)cc1 ?
Result: 441 nM
